Tested on: glycogen synthase kinase-3 (GSK3A per assay name; protocol says GSK3B)
protocol details: compounds binding glycogen synthase kinase-3 – biochemical, small-molecule microarray, 635 nm fluorescence, GSK3A, primary screen (AID 1103); also: the record names both GSK3A and GSK3B
test settings: fluorescence 635 nm, higher = more signal
measured endpoint: composite z-score
Numbers only.

Look over these answered cases.
CCOC(=O)C[C@H]1[C@H](OC(=O)c2cc3ccccc3oc2=O)[C@@H](NC(=O)CC(C)C)c2cc(OCCCO)ccc2N1C(=O)Cc1ccc(OC)cc1	0.523
C=C(C)[C@@H]1CC=C(C(O)C2C=CC3C(=O)N(c4ccccc4)C(=O)C3N2Nc2ccc([N+](=O)[O-])cc2)CC1 (stereo not given in full)	1.31
CCCC[C@H]1C[C@@H]1[C@@H]1N(C(C)=O)[C@H](c2cccc(OC)c2)CC12CC2	0.114
COC(=O)C(CC#Cc1ccc2c(c1)[C@]1(C(=O)N2)[C@H](c2ccc(OCCO)cc2)N2[C@H](c3ccccc3)[C@H](c3ccccc3)OC(=O)[C@H]2[C@@H]1C(=O)N1CCCCCCC1)C(=O)OC	1.37

From here, focus on the item given below.
Q) Looking for the measured composite z-score of C=CCC(OC(C)=O)[C@@H]1[C@@H](N(Cc2cccc3ccccc23)C(=O)Cc2ccc(OC)cc2)c2cc(OCCCO)ccc2N1C(=O)c1ccc2ccccc2c1 (stereo not given in full) , can you help?
A) -0.344

* * *

protocol details: basal CRE-LacZ reporter activity in PC12 – cell-based, unstimulated, primary screen (AID 1145)
test settings: no forskolin, luminescence, 4.5 h, higher = more signal, called active from +8 up or from −8 down
Classify as follows. Reported z-score greater than or equal to 0.6: Criterion met. Reported z-score below: Criterion not met.

COc1ccc(C(O)C2C=CC3C(=O)NC(=O)C3N2Nc2ccc(Cl)cc2Cl)c2ccccc12 (centres undefined)	Criterion met

Q) Does CC1CC/C=C\[C@H]2OC34C=CCN(CCN5CCOCC5)C(=O)[C@H]3N(CCCO)C(=O)[C@@H]4C2C(=O)O1 (some centres undefined) have a reported z-score of at least 0.6?
A) Criterion not met

Q) Also need `CCCCC(=C=CC[C@H](O)c1ccc(CO)o1)CCO` , thanks.
A) Criterion met

Q) Also need `Cc1ccc(S[C@]2(C(=O)NCCCN(C)C)CC(=O)N(Cc3ccccc3C(F)(F)F)[C@@H]2c2ccc(CO)cc2I)cc1` , thanks.
A) Criterion not met

Q) Also need `COC(=O)C(CC#Cc1ccc2c(c1)[C@]1(C(=O)N2)[C@H](c2ccccc2OCCO)N2[C@H](c3ccccc3)[C@H](c3ccccc3)OC(=O)[C@H]2[C@@H]1C(=O)N1CCc2cc(OC)c(OC)cc2C1)C(=O)OC` , thanks.
A) Criterion not met

* * *

Assign z-score to each entry below.
protocol details: blockers of DNA damage checkpoint Chk1 activation – imaging, HeLa, hydroxyurea, phospho-Chk1 antibody, percent positive cells, primary screen (AID 1186)
test settings: hydroxyurea-induced phospho-Chk1 immunofluorescence imaging, higher = more signal
Give bare numbers.

CC(C)C[C@H]1NC(=O)C([C@@H](C)OCc2ccccc2)NC(=O)[C@@]23C(=O)N[C@@H](Cc4ccccc4)C2[C@H](C)[C@@]2(C)O[C@H]2C3/C=C/C/C=C\CNC1=O (stereo partly specified)	-0.762

Each compound below has a reported value. Please supply its z-score.
1. Cc1ccc(S[C@]2(C(=O)NCCCN(C)C)CC(=O)N(Cc3ccccc3C(F)(F)F)[C@@H]2c2ccc(CO)cc2I)cc1
2. C=C(CCCC)/C(=C/C[C@H](OC(C)=O)c1cccc(OCCO)c1)c1cnc2ccccc2c1

A)
1: 0.0909; 2: -0.549

Each compound below has a reported value. Please supply its z-score.
1. CC1CC/C=C\[C@H]2OC34C=CCN(Cn5nnc6ccccc65)C(=O)[C@H]3N(CCCCCCO)C(=O)[C@@H]4C2C(=O)O1 (stereo partly specified)
2. O=C1[C@H]2C=C(I)[C@H](C[C@@H]2c2ccccc2)[C@@]12CO2
3. C=C(C)[C@@H]1CC=C(C(O)C2C=CC3C(=O)N(c4ccccc4)C(=O)C3N2Nc2ccc([N+](=O)[O-])cc2)CC1 (stereo partly specified)

A)
-0.481
-0.428
0.248

Each compound below has a reported value. Please supply its z-score.
1. O=C1NC(=O)C2C1C=CC(C(O)c1ccc(B(O)O)cc1)N2Nc1ccc(Cl)cc1Cl (stereo unspecified)
2. COc1ccc(CCNC(=O)[C@@H]2c3ccccc3C(=O)N(Cc3ccccc3OC)[C@H]2c2ccc(CO)cc2)cc1

A)
[0.549, -0.0274]

Each compound below has a reported value. Please supply its z-score.
1. COc1ccc([Si](C)(C)[C@@H]2[C@@H](CC(=O)N(CCO)Cc3ccccc3)O[C@]3(C(=O)N(Cc4ccc(I)cc4)c4ccccc43)[C@H]2C)cc1
2. CCN(CC)c1ccc(N2CC=CC34O[C@@H]5C=CCCOC(=O)C5[C@H]3C(=O)N(C(C)CO)[C@@H]4C2=O)cc1 (stereo partly specified)
3. CC(C)N1C(=O)c2ccccc2[C@](C)(C(=O)NCC(F)(F)F)[C@@H]1c1ccc(CO)cc1
4. CCOC(=O)C[C@H]1[C@H](OC(=O)c2cc3ccccc3oc2=O)[C@@H](NC(=O)CC(C)C)c2cc(OCCCO)ccc2N1C(=O)Cc1ccc(OC)cc1

A)
1. -0.168
2. 1.74
3. 0.256
4. 0.372

Each compound below has a reported value. Please supply its z-score.
1. COC(=O)[C@@]1(Cc2ccc(F)cc2)[C@H]2c3cc(C(=O)N4CCCC4)n(CCc4ccccn4)c3C[C@H]2CN1C(=O)c1ccccc1
2. N#Cc1ccc(C(O)C2C=CC3C(=O)NC(=O)C3N2Nc2ccc(Cl)cc2Cl)cc1 (stereo unspecified)
3. CCCN1C(=O)[C@@]2(c3ccc([N+](=O)[O-])cc3)CC(=O)N(CC34CC5CC(CC(C5)C3)C4)[C@@H]2c2ccc(CO)cc21
4. [N-]=[N+]=NCc1ccccc1[C@@H]1OC(c2ccc(OCCCO)cc2)=N[C@]1(Cc1ccccc1N=[N+]=[N-])C(=O)NCC(O)CO (stereo partly specified)
5. Cc1ccc(S[C@]2(C(=O)NCc3ccccc3)CC(=O)N(Cc3ccccc3C(F)(F)F)[C@@H]2c2ccc(CO)cc2)cc1
6. CC(C)NC(=O)[C@@H]1c2ccccc2C(=O)N(Cc2ccc(OC(F)(F)F)cc2)[C@H]1c1ccc(CO)cc1
7. COC(=O)[C@@]1(Cc2ccccc2)[C@H]2c3cc(C(=O)N(C)C)n(CCO)c3C[C@H]2CN1C(=O)c1ccccc1
8. O=C(NCC(O)CO)[C@@]1(CCS(=O)(=O)c2ccccc2)N=C(c2ccc(OCCCO)cc2)O[C@H]1c1ccccc1 (stereo partly specified)

A)
[0.227, 0.731, 0.177, -0.168, -0.51, 0.244, 0.736, -0.579]

Q) Looking for the measured z-score of `[N-]=[N+]=NCc1ccccc1[C@@H]1OC(c2ccc(OCCCO)cc2)=N[C@]1(Cc1ccccc1N=[N+]=[N-])C(=O)O` , can you help?
A) 0.277
